- targetUnderTest: NACHT, LRR and PYD domains-containing protein 3 (Mus musculus) (UniProt Q8R4B8)
- Sequence (Q8R4B8 whole entry, the tested form may be a part): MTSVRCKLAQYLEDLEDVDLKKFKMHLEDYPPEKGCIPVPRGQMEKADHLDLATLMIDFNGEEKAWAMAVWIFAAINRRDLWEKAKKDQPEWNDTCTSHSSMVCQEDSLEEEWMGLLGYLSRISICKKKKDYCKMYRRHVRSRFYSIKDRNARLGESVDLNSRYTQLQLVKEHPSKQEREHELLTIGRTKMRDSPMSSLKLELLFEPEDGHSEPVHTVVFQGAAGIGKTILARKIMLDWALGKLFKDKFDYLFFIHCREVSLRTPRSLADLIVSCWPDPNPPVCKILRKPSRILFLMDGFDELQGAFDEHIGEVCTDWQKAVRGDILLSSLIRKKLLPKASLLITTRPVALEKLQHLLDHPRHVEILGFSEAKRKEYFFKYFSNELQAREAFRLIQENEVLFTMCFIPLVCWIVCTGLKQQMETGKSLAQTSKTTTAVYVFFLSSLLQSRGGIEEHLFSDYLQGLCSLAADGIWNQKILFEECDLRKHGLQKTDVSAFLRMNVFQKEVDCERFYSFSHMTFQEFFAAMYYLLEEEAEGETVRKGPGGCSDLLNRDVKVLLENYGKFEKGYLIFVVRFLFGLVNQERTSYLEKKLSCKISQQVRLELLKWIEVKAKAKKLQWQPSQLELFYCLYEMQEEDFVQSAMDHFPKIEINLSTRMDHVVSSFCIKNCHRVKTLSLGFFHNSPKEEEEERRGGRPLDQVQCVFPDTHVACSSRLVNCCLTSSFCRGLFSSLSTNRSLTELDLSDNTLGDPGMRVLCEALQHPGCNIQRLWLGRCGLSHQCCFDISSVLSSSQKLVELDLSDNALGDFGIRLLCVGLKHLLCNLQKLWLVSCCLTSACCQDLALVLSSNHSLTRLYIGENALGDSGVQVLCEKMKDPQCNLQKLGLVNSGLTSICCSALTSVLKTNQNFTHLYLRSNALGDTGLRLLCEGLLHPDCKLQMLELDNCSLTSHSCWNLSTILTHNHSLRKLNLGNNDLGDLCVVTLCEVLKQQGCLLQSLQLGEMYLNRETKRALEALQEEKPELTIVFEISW
- assayRemarks: Inhibition of NLRP3 inflammasome activation in mouse […] cells assessed as reduction in LPS/ATP-induced IL-1 beta release at 1 uM pretreated with LPS for 4.5 hrs followed by compound addition for 30 mins prior to ATP addition and measured after 30 mins by ELISA relative to control
- Type: cell-based
- testContext: J774.A1, time 5.5 hrs
outcomeMeasure: inhibition (%)

Below, 3 compounds whose answers are already recorded.
CCNC(=O)Nc1ccc(-c2ccccc2N(Cc2cc(Cl)ccc2OCCOC)C(=O)Cc2ccsc2)cc1 ... 56.9
C=CC(=O)Nc1ccc(-c2ccccc2N(Cc2cc(Cl)ccc2OCCOC)C(=O)Cc2ccsc2)cc1 ... 24.5
CCCCCC(=O)Nc1ccc(-c2ccccc2N(Cc2cc(Cl)ccc2OCCOC)C(=O)Cc2ccsc2)cc1 ... 67.5

1. CCC(=O)Nc1ccc(-c2ccccc2N(Cc2cc(Cl)ccc2OCCOC)C(=O)Cc2ccc(F)cc2)cc1
2. C#CCCCC(=O)Nc1ccc(-c2ccccc2N(Cc2cc(Cl)ccc2OCCOC)C(=O)Cc2ccsc2)cc1
3. CCNC(=S)Nc1ccc(-c2ccccc2N(Cc2cc(Cl)ccc2OCCOC)C(=O)Cc2ccsc2)cc1
4. CCCCS(=O)(=O)Nc1ccc(-c2ccccc2N(Cc2cc(Cl)ccc2OCCOC)C(=O)Cc2ccsc2)cc1
Query: Output the entries ranked by inhibition from maximum down to minimum. # answer = labels listed in requested order
Result: 1, 4, 3, 2

P. COCCOc1ccc(Cl)cc1CN(C(=O)Cc1ccsc1)c1ccccc1-c1ccc(NC(=O)CBr)cc1
Q. CCC(=O)Nc1ccc(-c2ccccc2N(Cc2cc(F)ccc2OCC(C)(F)F)C(=O)Cc2ccsc2)cc1
Query: Kindly identify which of P and Q has the larger recorded inhibition value. Response format: the label of the selected entry.
Result: P
(P: 73%, Q: 27.8%)

a. CCCC(CCC)C(=O)Nc1ccc(-c2ccccc2N(Cc2cc(Cl)ccc2OCCOC)C(=O)Cc2ccsc2)cc1
b. CCC(=O)Nc1ccc(-c2ccccc2N(Cc2cc(Cl)ccc2OCCOC)C(=O)Cc2ccsc2)cc1
Query: Of a and b , whose reported inhibition is numerically smaller? Response format: the label of the selected entry.
Result: a
(a: 28.6%, b: 72.3%)

###

- assayRemarks: Cytotoxicity against mouse J774.A1 cells
- Format: toxicity, cell-based
outcomeMeasure: pIC50
# log scale: pIC50 equals minus log10 of the concentration in mol/L

Query: Tell me the measured pIC50 of "CCC(=O)Nc1ccc(-c2ccccc2N(Cc2cc(Cl)ccc2OCCOC)C(=O)c2ccc(F)cc2)cc1" , please.
Result: 4.30

###

- targetUnderTest: NACHT, LRR and PYD domains-containing protein 3 (Mus musculus)
- Sequence (Q8R4B8 whole entry, the tested form may be a part): as above
- assayRemarks: Inhibition of NLRP3 inflammasome activation in mouse […] cells assessed as reduction in LPS/ATP-induced IL-1 beta release pretreated with LPS for 4.5 hrs followed by compound addition for 30 mins prior to ATP addition and measured after 30 mins by ELISA
- Type: cell-based, J774.A1
pIC50: −log10 of the molar value.
outcomeMeasure: pIC50

Below, 5 compounds whose answers are already recorded.
CCC(=O)Nc1ccc(-c2ccccc2N(Cc2cc(Cl)ccc2OCC(C)(F)F)C(=O)Cc2ccsc2)cc1 ... 6.26
CCC(=O)Nc1ccc(-c2ccccc2N(Cc2cc(Cl)ccc2OCCOC)C(=O)Cc2ccc(F)cc2)cc1 ... 6.19
COCCOc1ccc(Cl)cc1CN(C(=O)Cc1ccsc1)c1ccccc1-c1ccc(NC(=O)[C@@H]2CCC(=O)N2)cc1 ... 6.07
COCCOc1ccc(Cl)cc1CN(C(=O)Cc1ccsc1)c1ccccc1-c1ccc(NC(=O)CBr)cc1 ... 6.51
CCC(=O)Nc1ccc(-c2ccccc2N(Cc2cc(Cl)ccc2OCCOC)C(=O)Cc2ccsc2)cc1 ... 6.07

I. CCCC(=O)Nc1ccc(-c2ccccc2N(Cc2cc(Cl)ccc2OCCOC)C(=O)Cc2ccsc2)cc1
II. CCC(=O)Nc1ccc(-c2ccccc2N(Cc2cc(Cl)ccc2OCCOC)C(=O)c2ccc(F)cc2)cc1
III. CCCCCC(=O)Nc1ccc(-c2ccccc2N(Cc2cc(Cl)ccc2OCCOC)C(=O)Cc2ccsc2)cc1
IV. CC(C)(O)c1coc(S(=O)(=O)NC(=O)Nc2c3c(cc4c2CCC4)CCC3)c1
Query: Output the entries ranked by pIC50 from maximum down to minimum. # answer = labels listed in requested order
Result: IV, II, III, I
(IV: 7.82, II: 6.47, III: 6.23, I: 5.99)

###

- targetUnderTest: NACHT, LRR and PYD domains-containing protein 3 (Mus musculus)
- assayRemarks: Inhibition of NLRP3 inflammasome activation in mouse […] cells assessed as reduction in LPS/ATP-induced IL-1 beta release at 1 uM pretreated with LPS for 4.5 hrs followed by compound addition for 30 mins prior to ATP addition and measured after 30 mins by ELISA relative to control
- Format: cell-based
- testContext: J774.A1, time 5.5 hrs
outcomeMeasure: inhibition (%)

Below, 2 compounds whose answers are already recorded.
CCC(=O)Nc1ccc(-c2ccccc2N(Cc2cc(Cl)ccc2OCCOC)C(=O)c2ccc(F)c(F)c2)cc1 ... 36.1
CCS(=O)(=O)Nc1ccc(-c2ccccc2N(Cc2cc(Cl)ccc2OCCOC)C(=O)c2ccc(F)cc2)cc1 ... 55.4

A. CCCCCC(=O)Nc1ccc(-c2ccccc2N(Cc2cc(Cl)ccc2OCCOC)C(=O)c2ccc(F)cc2)cc1
B. COCCOc1ccc(Cl)cc1CN(C(=O)Cc1ccsc1)c1ccccc1-c1ccc(NC(C)=O)cc1
Query: Of A and B , whose reported inhibition is numerically smaller? Response format: the label of the selected entry.
Result: B
(B: 1.56%, A: 7.12%)

###

- targetUnderTest: NACHT, LRR and PYD domains-containing protein 3 (Mus musculus) (UniProt Q8R4B8)
- assayRemarks: Inhibition of NLRP3 inflammasome activation in mouse […] cells assessed as reduction in LPS/ATP-induced IL-1 beta release at 1 uM pretreated with LPS for 4.5 hrs followed by compound addition for 30 mins prior to ATP addition and measured after 30 mins by ELISA relative to control
- Format: cell-based
- testContext: J774.A1, time 5.5 hrs
outcomeMeasure: inhibition (%)

CCCS(=O)(=O)Nc1ccc(-c2ccccc2N(Cc2cc(Cl)ccc2OCCOC)C(=O)Cc2ccsc2)cc1 ... 31.4
COCCOc1ccc(Cl)cc1CN(C(=O)Cc1ccsc1)c1ccccc1-c1ccc(NC(=O)Cc2ccccc2)cc1 ... 44.5
CCCS(=O)(=O)Nc1ccc(-c2ccccc2N(Cc2cc(Cl)ccc2OCCOC)C(=O)c2ccc(F)cc2)cc1 ... 58.9
CCC(=O)Nc1ccc(-c2ccccc2N(Cc2cc(Cl)ccc2OCCOC)C(=O)c2c(F)c(F)c(F)c(F)c2F)cc1 ... 39.7
CCC(=O)Nc1ccc(-c2ccccc2N(Cc2ccc(C(F)(F)F)cc2)C(=O)c2ccc(F)cc2)cc1 ... 49.7
CCC(=O)Nc1ccc(-c2ccccc2N(Cc2cc(F)ccc2OCCOC)C(=O)Cc2ccsc2)cc1 ... 42.7

###

- targetUnderTest: NACHT, LRR and PYD domains-containing protein 3 (Mus musculus) (UniProt Q8R4B8)
- assayRemarks: Inhibition of NLRP3 inflammasome activation in mouse […] cells assessed as reduction in LPS/ATP-induced IL-1 beta release at 10 uM pretreated with LPS for 4.5 hrs followed by compound addition for 30 mins prior to ATP addition and measured after 30 mins by ELISA relative to control
- Assay type: cell-based
- testContext: J774.A1, time 5.5 hrs
outcomeMeasure: inhibition (%)

CCC(=O)Nc1ccc(-c2ccccc2N(Cc2cc(F)ccc2OCC(C)(F)F)C(=O)Cc2ccsc2)cc1 ... 74.8
CCCS(=O)(=O)Nc1ccc(-c2ccccc2N(Cc2cc(Cl)ccc2OCCOC)C(=O)c2ccc(F)cc2)cc1 ... 67.6
CCC(=O)Nc1ccc(-c2ccccc2N(Cc2cc(F)ccc2OCCOC)C(=O)Cc2ccsc2)cc1 ... 83.8
COCCOc1ccc(Cl)cc1CN(C(=O)Cc1ccsc1)c1ccccc1-c1ccc(NC(=O)Cc2ccccc2)cc1 ... 84.3
CCC(=O)Nc1ccc(-c2ccccc2N(Cc2cc(Cl)ccc2OCCOC)C(=O)Cc2ccsc2)cc1 ... 92.5
